- measurement protocol: Hydrolysis of NAD+ in glycine-NaOH buffer pH 9.5 at 25 °C (HPLC)
- Format: physicochemical
- condition summary: glycine-NaOH buffer; glycine-NaOH pH 9.5, 25 °C; read-out: t1/2 of NAD+ hydrolysis (converted)
- Experimental: NAD^+ (3 mM) was incubated with (black) or without (blue) 10 nM ACT in glycine-NaOH buffer (pH 9.5, 5 mM MgCl2) at 25 °C for 60 min. Unincubated NAD^+ (red) served as a control. Compounds were identified via LC-MS. […] Data are presented as means ± SDs (n = 3). […] Fig. S5 The hydrolysis rate of NAD^+ at 25 °C. […] Samples were withdrawn at various time intervals and analyzed by HPLC. The residual NAD^+ was quantified according to the standard curves of NAD^+.
reported metric: half-life at 3 mM
Answer format: number, then unit.

Q: // lookup half-life at 3 mM for `NC(=O)c1ccc[n+]([C@@H]2O[C@H](COP(=O)(O)OP(=O)(O)OC[C@H]3O[C@@H](n4cnc5c(N)ncnc54)[C@H](O)[C@@H]3O)[C@@H](O)[C@H]2O)c1`
Result: 64 h

* * *

- tgt: BmMDH2 (Bacillus methanolicus, UniProt I3E949)
- Sequence (I3E949 entry or part of it): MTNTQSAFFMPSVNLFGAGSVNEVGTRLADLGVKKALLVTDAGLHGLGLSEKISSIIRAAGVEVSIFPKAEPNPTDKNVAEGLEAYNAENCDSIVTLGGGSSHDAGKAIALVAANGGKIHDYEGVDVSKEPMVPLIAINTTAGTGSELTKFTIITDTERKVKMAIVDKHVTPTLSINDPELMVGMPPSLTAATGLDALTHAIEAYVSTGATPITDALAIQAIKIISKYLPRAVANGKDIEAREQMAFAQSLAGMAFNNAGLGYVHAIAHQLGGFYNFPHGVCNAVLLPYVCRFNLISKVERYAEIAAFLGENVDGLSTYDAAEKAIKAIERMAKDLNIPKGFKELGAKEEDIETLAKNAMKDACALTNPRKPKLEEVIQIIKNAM
- measurement protocol: Effect of metal ions on the activity of purified BmMDH2
- Type: biochemical
- condition summary: 1 mM metal ion, on ice 1 h; 50 mM propanol, 37 °C
reported metric: effect of metal ion on BmMDH2 activity

INSERT INTO assay_data (smiles_entry, reported_metric, recorded_measurement) VALUES
  ('[Cu+2]', 'effect of metal ion on BmMDH2 activity', 'significantly inhibited'),
  ('[Mg+2]', 'effect of metal ion on BmMDH2 activity', 'slightly decreased'),
  ('[Ca+2]', 'effect of metal ion on BmMDH2 activity', 'slightly decreased'),
  ('[Mn+2]', 'effect of metal ion on BmMDH2 activity', 'significantly enhanced');

Q: // lookup effect of metal ion on BmMDH2 activity for `[Zn+2]`
Result: significantly inhibited

Q: // lookup effect of metal ion on BmMDH2 activity for `[Co+2]`
Result: significantly enhanced

Q: // lookup effect of metal ion on BmMDH2 activity for `[Ni+2]`
Result: slightly decreased
